System: Arabidopsis thaliana plants
MEASUREMENT_DESCRIPTION: Phenotypic analysis of herbicide-treated Arabidopsis plants (SOA1)
Type: in vivo
STATED_CONDITIONS: three-week-old Arabidopsis sprayed with herbicide, phenotype classes of FIG. 12
READOUT: Symptom Class
Reply: number alone, nothing else.

Before answering, review these 4 worked examples.
COMPOUND	MEASURED_ON	Symptom Class
c1cc[n+]2c(c1)-c1cccc[n+]1CC2	Arabidopsis thaliana plants	7
O=C(O)CNCP(=O)(O)O [Glyphosate]	Arabidopsis thaliana plants	4
O=C(O)COc1ccc(Cl)cc1Cl	Arabidopsis thaliana plants	5
CN(C)C(=O)Nc1ccc(Cl)c(Cl)c1	Arabidopsis thaliana plants	7

Input line: Please give the measured Symptom Class for this compound: CP(=O)(O)CCC(N)C(=O)O (centres unmarked) [Glufosinate]
Output line: 3

----------
Test system: Arabidopsis thaliana plants
MEASUREMENT_DESCRIPTION: Phenotypic analysis of herbicide-treated Arabidopsis plants (SOA1)
Format: in vivo
STATED_CONDITIONS: standardized to mock treated
Parameter: Dev. newLeafNecrosis. Scope: all listed entries.
Form rule: numeric answer, no unit written next to it.

MOLECULE	REPORTED_VALUE
CN(C)C(=O)Nc1ccc(Cl)c(Cl)c1	4
c1cc[n+]2c(c1)-c1cccc[n+]1CC2	4
C[n+]1ccc(-c2cc[n+](C)cc2)cc1	4
O=C(O)COc1ccc(Cl)cc1Cl	0
CP(=O)(O)CCC(N)C(=O)O (stereo not drawn) [Glufosinate]	0

As a next step, examine the molecule that follows.
Input line: Report Dev. newLeafNecrosis for O=C(O)CNCP(=O)(O)O [Glyphosate] please.
Output line: 0

----------
Test system: Arabidopsis thaliana plants
MEASUREMENT_DESCRIPTION: Phenotypic analysis of herbicide-treated Arabidopsis plants (SOA1)
Format: in vivo
STATED_CONDITIONS: standardized to mock treated
READOUT: Dev. leafTwisting
Give the figure only, with no unit attached.

Examples with their reported Dev. leafTwisting follow.
COMPOUND	Dev. leafTwisting
CP(=O)(O)CCC(N)C(=O)O (stereo not drawn) [Glufosinate]	1
CN(C)C(=O)Nc1ccc(Cl)c(Cl)c1	0
c1cc[n+]2c(c1)-c1cccc[n+]1CC2	0
O=C(O)CNCP(=O)(O)O [Glyphosate]	0
C[n+]1ccc(-c2cc[n+](C)cc2)cc1	0

Input line: Quick check: Dev. leafTwisting of `O=C(O)COc1ccc(Cl)cc1Cl` ?
Output line: 2

Data credit: patent US20040023295A1
